These data points were gathered from paper PMC9260974.

- assay_details: Single-dose two-period crossover bioequivalence study, fasting: plasma pharmacokinetics of lisinopril and amlodipine (LC-MS/MS, NCA);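 also: single tablet dose 10 mg/5 mg fixed combination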
- condition_label: human, plasma, po, Plasma concentration of amlodipine, Min, reference (R) tablets, nominal time 7 h, minimum over subjects
recorded_endpoint: concentration at 7 h (ng/mL)

>>> measured_value("CCOC(=O)C1=C(COCCN)NC(C)=C(C(=O)OC)C1c1ccccc1Cl (stereo not shown)")
1.03

----------
- assay_details: Single-dose two-period crossover bioequivalence study, fed (high-fat breakfast): plasma pharmacokinetics of lisinopril and amlodipine (LC-MS/MS, NCA)
- condition_label: human, plasma, po, Plasma concentration of lisinopril, Mean, mean of 37 subjects, nominal time 9 h, reference (R) tablets
recorded_endpoint: concentration at 9 h (ng/mL)

>>> measured_value("NCCCC[C@H](N[C@@H](CCc1ccccc1)C(=O)O)C(=O)N1CCC[C@H]1C(=O)O")
13.5
